# tested_system: GlcNAc(b1-3)[GlcNAc(b1-6)]Gal(b1-4)GlcNAc
# assay_method_text: glycan array binding signal (z-score within array); higher = stronger binding
# condition_notes: glycan notation: IUPAC condensed, linker removed
The entries come from a sample that favours the strongest signals as a whole.
measurement_name: glycan array binding signal (z-score)

1. SSL (Salmo salar) (protein) TGAKGAEEGVVPAETRNQCPTGWFQFGSRCFMFVETARSWPLAERHCVSLGANLASVHSSADDQFLQAIAGCKTGAFSTTWIGGFDAVQDRLWFWSDGSEFDYQNWAKGEPNNSGGREPCIVINWGDEYRWNDIKCGNSFPSVCSKRICEIQKN: 6.68
2. GALT1 615 (Arabidopsis thaliana), Q8L7F9 (protein) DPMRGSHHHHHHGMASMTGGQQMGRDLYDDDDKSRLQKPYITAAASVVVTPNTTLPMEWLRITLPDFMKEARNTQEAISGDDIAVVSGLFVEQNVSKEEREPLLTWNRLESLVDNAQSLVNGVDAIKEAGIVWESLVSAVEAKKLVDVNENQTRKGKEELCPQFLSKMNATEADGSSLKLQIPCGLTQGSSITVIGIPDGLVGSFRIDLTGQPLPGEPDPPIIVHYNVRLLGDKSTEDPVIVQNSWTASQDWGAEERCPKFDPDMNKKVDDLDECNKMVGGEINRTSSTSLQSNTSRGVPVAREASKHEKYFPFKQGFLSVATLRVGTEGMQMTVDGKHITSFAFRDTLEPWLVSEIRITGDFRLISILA: -0.348

Origin of the recorded values: the supplement of paper PMC8728848
